test: Selectivity index, ratio of EC50 for human MCF7 cells to EC50 for multidrug-resistant Plasmodium falciparum Dd2 at ring stage infected in A+ erythrocytes; type: toxicity, cell-based; details: read-out: Ratio EC50
Threshold rule: selectivity ratio greater than or equal to 80 is Yes; below that, No.

Before answering, review these 7 worked examples.
Confirm if selectivity ratio reported for the molecule `CCN1CCN(Cc2ccc(NC(=O)c3cc(Cl)cc(Nc4cncc(-c5cccs5)c4)c3)cc2C(F)(F)F)CC1` is 80 or above. No

Decide: is the reported value of selectivity ratio for `CCN1CCN(Cc2ccc(NC(=O)c3cc(Cl)cc(NC(=O)c4ccccc4)c3)cc2C(F)(F)F)CC1` equal to or greater than 80? No

Assess whether reported selectivity ratio for `CCN1CCN(Cc2ccc(NC(=O)c3cc(F)cc(NC(=O)c4cncc(-c5cccs5)c4)c3)cc2C(F)(F)F)CC1` sits at 80 or higher. No

Determine whether this molecule has selectivity ratio no lower than 80: `CCN1CCN(Cc2ccc(NC(=O)c3cc(Cl)cc(NC(=O)c4cncc(-c5cncs5)c4)c3)cc2C(F)(F)F)CC1` Yes

Identify whether the reported selectivity ratio of the following molecule is 80 or greater: `CCN1CCN(Cc2ccc(NC(=O)c3cc(Cl)cc(NC(=O)c4cncc(C#N)c4)c3)cc2C(F)(F)F)CC1` No

Check this molecule for selectivity ratio at or above 80: `CCN1CCN(Cc2ccc(NC(=O)c3cc(Cl)cc(NC(=O)c4cncc(-c5ccco5)c4)c3)cc2C(F)(F)F)CC1` Yes

Determine whether measured selectivity ratio meets or exceeds 80 for `CCN1CCN(Cc2ccc(NC(=O)c3cc(Cl)cc(NC(=O)c4cccnc4)c3)cc2C(F)(F)F)CC1` No

Please look at the following molecule next.
Identify whether the reported selectivity ratio of the following molecule is 80 or greater: `CCN1CCN(Cc2ccc(NC(=O)c3cc(Cl)cc(NC(=O)c4cncc(-c5ccccc5)c4)c3)cc2C(F)(F)F)CC1` Yes

====

test system: Plasmodium falciparum; experiment: Antimalarial activity against synchronized Plasmodium falciparum 3D7 assessed as reduction in parasite growth at early asexual stage treated 6 hrs post-invasion measured after 72 hrs by SYBR green I dye based microscopy; assay type: functional, organism-based
experimental-endpoint: pEC50
Give bare numbers, as −log10 of the molar value.

Form: molecule = `CCN1CCN(Cc2ccc(NC(=O)c3cc(Cl)cc(NC(=O)c4cncc(-c5cccs5)c4)c3)cc2C(F)(F)F)CC1` ; pEC50 = 7.53

====

Provide the recorded pEC50 for the entries that follow.
test system: MCF7; assay: Cytotoxicity against human MCF7 cells assessed as reduction in cell viability incubated for 48 hrs by MTS assay; assay type: toxicity, cell-based; conditions: mcf7
Answers are plain numbers, as −log10 of the molar value.

Record `CCN1CCN(Cc2ccc(NC(=O)c3cc(Cl)cc(NC(=O)c4cncc(-c5cccs5)c4)c3)cc2C(F)(F)F)CC1` , field pEC50: 5.45

// input: 3 molecules below; output: pEC50 for each
1. CCN1CCN(Cc2ccc(NC(=O)c3cc(Cl)cc(NC(=O)c4ccccc4)c3)cc2C(F)(F)F)CC1
2. CCN1CCN(Cc2ccc(NC(=O)c3ccc(F)c(NC(=O)c4cncc(-c5cccs5)c4)c3)cc2C(F)(F)F)CC1
3. CCN1CCN(Cc2ccc(NC(=O)c3cc(Cl)cc(NC(=O)c4cncc(-c5ccco5)c4)c3)cc2C(F)(F)F)CC1

5.22
5.29
5.19
